Ref: paper PMC10946055

- TARGET UNDER TEST: XPA DBD M113I (Homo sapiens, UniProt P23025 98-239, M113I)
- Sequence (P23025 98-239 M113I): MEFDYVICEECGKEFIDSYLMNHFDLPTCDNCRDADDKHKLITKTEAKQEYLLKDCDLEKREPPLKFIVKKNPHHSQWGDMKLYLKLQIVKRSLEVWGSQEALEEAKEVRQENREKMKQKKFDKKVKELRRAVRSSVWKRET
- PROTOCOL DESCRIPTION: MST
pKd: −log10 of the molar value.

BINDER | pKd
TTTTGCGGCCGCTTTTGCGGCCGC (structured_DNA) [NER junction mimic hairpin, 8 bp with 4 nt overhang] | 4.92
